- Test system: MDBK
- PROCEDURE SUMMARY: Cytotoxicity assay (CC50, sulforhodamine B staining)
- Type: cell-based
- STUDY CONDITIONS: MDBK cells; 4 days incubation; concentration reducing cell number by 50%; preliminary results
Provide the reported CC50 of each item.

// query For C[C@]1(CO)O[C@@H](n2cnc3c(N)ncnc32)[C@H](O)[C@@H]1O [β-D-4′-CH3-riboA, 9-(4-C-methyl-β-D-ribofuranosyl) adenine] , what is its reported CC50?
// result > 250 µM

// query Further, for C[C@]1(CO)O[C@@H](n2ccc(N)nc2=O)[C@H](O)[C@@H]1O [β-D-4′-CH3-riboC, 1-(4-C-methyl-β-D-ribofuranosyl)cytosine] ?
// result > 250 µM

// query Further, for C[C@]1(CO)O[C@@H](n2ccc(=S)[nH]c2=O)[C@H](O)[C@@H]1O [β-D-4′-CH3-ribo-4-thioU] ?
// result > 250 µM

// query Further, for C[C@]1(CO)O[C@@H](n2cnc3c(=O)[nH]c(N)nc32)[C@H](O)[C@@H]1O [β-D-4′-CH3-riboG, 9-(4-C-methyl-β-D-ribofuranosyl) guanine] ?
// result > 250 µM

// query Further, for C[C@]1(CO)O[C@@H](n2cc(F)c(=O)[nH]c2=O)[C@H](O)[C@@H]1O [β-D-4′-CH3-ribo-5-fluoroU] ?
// result > 167 µM

// query Further, for Cc1cn([C@@H]2O[C@](C)(CO)[C@@H](O)[C@H]2O)c(=O)[nH]c1=O [β-D-4′-CH3-riboT, 1-(4-C-methyl-β-D-ribofuranosyl)thymine] ?
// result > 250 µM
